# measurement.target: T1, TNFR1 (Homo sapiens, UniProt P19438)
# T1 chain: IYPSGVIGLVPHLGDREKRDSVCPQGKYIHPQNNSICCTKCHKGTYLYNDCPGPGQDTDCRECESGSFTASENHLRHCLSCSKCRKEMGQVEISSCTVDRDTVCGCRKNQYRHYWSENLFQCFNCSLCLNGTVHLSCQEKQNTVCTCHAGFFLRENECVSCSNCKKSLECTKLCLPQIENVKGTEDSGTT
# experiment.description: yeast display SC50
attribute.measured: apparent Kd (screen) (nM)

Recorded apparent Kd (screen), per entry:
# binder, apparent Kd (screen), nM
rows = [
    ("A15I (designed binder) MTLQELLREEALRRIEAEAFRYALELLAEKFPEQKEYLLDLAEEIESQIRSLSGVDVEDVRKFLDKEWAWVKELLAEHPAELAEVEAARAARLAELRAEVEAKVAA", 0.593),
    ("A91N (designed binder) MTLQELLREEALRRAEAEAFRYALELLAEKFPEQKEYLLDLAEEIESQIRSLSGVDVEDVRKFLDKEWAWVKELLAEHPAELAEVEAARANRLAELRAEVEAKVAA", 0.593),
    ("V85N (designed binder) MTLQELLREEALRRAEAEAFRYALELLAEKFPEQKEYLLDLAEEIESQIRSLSGVDVEDVRKFLDKEWAWVKELLAEHPAELAENEAARAARLAELRAEVEAKVAA", 0.653),
    ("Y37K (designed binder) MTLQELLREEALRRAEAEAFRYALELLAEKFPEQKEKLLDLAEEIESQIRSLSGVDVEDVRKFLDKEWAWVKELLAEHPAELAEVEAARAARLAELRAEVEAKVAA", 0.539),
]

[a] S53K (designed binder) MTLQELLREEALRRAEAEAFRYALELLAEKFPEQKEYLLDLAEEIESQIRSLKGVDVEDVRKFLDKEWAWVKELLAEHPAELAEVEAARAARLAELRAEVEAKVAA
[b] V104F (designed binder) MTLQELLREEALRRAEAEAFRYALELLAEKFPEQKEYLLDLAEEIESQIRSLSGVDVEDVRKFLDKEWAWVKELLAEHPAELAEVEAARAARLAELRAEVEAKFAA
[c] L38P (designed binder) MTLQELLREEALRRAEAEAFRYALELLAEKFPEQKEYPLDLAEEIESQIRSLSGVDVEDVRKFLDKEWAWVKELLAEHPAELAEVEAARAARLAELRAEVEAKVAA
[d] R8P (designed binder) MTLQELLPEEALRRAEAEAFRYALELLAEKFPEQKEYLLDLAEEIESQIRSLSGVDVEDVRKFLDKEWAWVKELLAEHPAELAEVEAARAARLAELRAEVEAKVAA
stdin: Arrange these 4 binders in increasing order of apparent Kd (screen). Give the labels in the order requested.
stdout: b, a, d, c
